experiment: GC-MS headspace release profile of Tropical Fruit perfume in shampoo, 1/100 dilution in water; type: physicochemical; conditions: headspace at 50 seconds
quantityName: GC Abundance

Solved cases below.
CC=CC(=O)C1=C(C)C=CCC1(C)C = 1000
COC(=O)c1c(C)cc(O)c(C)c1O [METHYL ATRATATE] = 50
CCCCCCC(C=O)=Cc1ccccc1 = 9000
C=CCOC(=O)CCC1CCCCC1 [ALLYL CYCLOHEXYL PROPIONATE] = 10000
CCC(C)(O)CCC=C(C)C (centres unmarked) [DIHYDROLINALOOL] = 3000

Input line: Complete the entry with GC Abundance for `Cc1ccc2c(c1)OCC(=O)CO2`
Output line: 1000

Input line: Complete the entry with GC Abundance for CCC(=O)OCc1ccccc1 [BENZYL PROPIONATE]
Output line: 6000

* * *

Quick list: GC Abundance per entry.
assay: GC-MS headspace release profile of Tropical Fruit perfume in shampoo, 1/100 dilution in water; format: physicochemical; details: headspace at 10 seconds

Solved cases below.
CCOC(=O)C(C)CC (stereo not shown) [Ethyl 2-methylbutyrate] = 3000
CCCC(C)C(=O)OCC (stereo not shown) [MANZANATE, Ethyl 2-methylpentanoate] = 1000
C=CC(C)CCCC(C)(C)O (stereo not shown) [DIHYDROMYRCENOL] = 500

Input line: Complete the entry with GC Abundance for CC1=CC(C)C(C=O)CC1 (stereo not shown) [TRIPLAL]
Output line: 1000

Input line: Complete the entry with GC Abundance for C=C(C)[C@H]1CC=C(C)CC1 [d-LIMONENE, d-1-Methyl-4-isopropenyl-1-cyclohexene]
Output line: 7000

Input line: Complete the entry with GC Abundance for C=CC(C)(O)CCC=C(C)C (stereo not shown) [LINALOOL]
Output line: 500

Input line: Complete the entry with GC Abundance for CCCC(=O)OCC [ETHYL BUTYRATE]
Output line: 2800

* * *

assay: GC-MS headspace release profile of Tropical Fruit perfume in shampoo, 1/100 dilution in water; type: physicochemical; settings: headspace at 20 seconds
Output: class label from GC Abundance. Mapping: b0: < 3000; b1: ≥ 3000 and < 7000; b2: ≥ 7000

C=CC(C)(O)CCC=C(C)CC (mixture of isomers) = b1
C=CC(C)(O)CCC=C(C)C (centres unmarked) = b2
CC(=O)OC1CCCCC1C(C)(C)C (centres unmarked) = b1
CC(C)=CC1CC(C)CCO1 (stereo not drawn) [ROSE OXIDE (HIGH CIS)] = b2
CCCC(=O)OCC [ETHYL BUTYRATE] = b0

Input line: The entry to classify is CC1=CC(C)C(C=O)CC1 (centres unmarked) ; which class holds it?
Output line: b2

Input line: The entry to classify is CCC(=O)OCc1ccccc1 [BENZYL PROPIONATE] ; which class holds it?
Output line: b0

Input line: The entry to classify is CCCCCC1CCC(=O)O1 (centres unmarked) ; which class holds it?
Output line: b0

Input line: The entry to classify is C=CCOC(=O)CCCCCC [ALLYL HEPTOATE] ; which class holds it?
Output line: b1

Input line: The entry to classify is CC/C=C\CCO [CIS-3-HEXEN-1-OL] ; which class holds it?
Output line: b2

Input line: The entry to classify is CC/C=C\CCOC(C)=O [CIS-3-HEXENYL ACETATE] ; which class holds it?
Output line: b1

Input line: The entry to classify is C=CC(C)CCCC(C)(C)O (centres unmarked) [DIHYDROMYRCENOL] ; which class holds it?
Output line: b2

Input line: The entry to classify is CC(=O)OCc1ccccc1 [BENZYL ACETATE] ; which class holds it?
Output line: b2

Input line: The entry to classify is CCCC(C)C(=O)OCC (centres unmarked) [MANZANATE, Ethyl 2-methylpentanoate] ; which class holds it?
Output line: b1

Input line: The entry to classify is CCOC(=O)C(C)CC (centres unmarked) [Ethyl 2-methylbutyrate] ; which class holds it?
Output line: b1

* * *

assay: GC-MS headspace release profile of Tropical Fruit perfume in shampoo, 1/100 dilution in water; assay type: physicochemical; settings: headspace at 40 seconds
Quick list: GC Abundance per entry.
Reply briefly: the number, and no unit.

Solved cases below.
CC1OC(C)C2Cc3ccccc3C2O1 (stereo not shown) [MAGNOLAN/CORPS 719] = 1000
CC(=O)C=CC1=C(C)CCCC1(C)C [IONONE BETA PURE] = 10000
CCCC(C)C(=O)OCC (stereo not shown) [MANZANATE, Ethyl 2-methylpentanoate] = 3000
CCC(C)(O)CCC=C(C)C (stereo not shown) [DIHYDROLINALOOL] = 3000
CCOC(=O)CC1(C)OCCO1 [FRUCTONE] = 5000
C=CC(C)(O)CCC=C(C)CC (mixture of isomers) [ETHYL LINALOOL] = 10000
CC(C)c1cccc(C(C)CC=O)c1 (stereo not shown) [FLORHYDRAL] = 9000
CC(C)=CCCC(C)CCCC(C)C=O (stereo not shown) [ADOXAL, 2,6,10-Trimethyl-9-undecenal] = 300

Input line: Complete the entry with GC Abundance for CC(C=O)Cc1ccc2c(c1)OCO2 (stereo not shown) [HELIONAL]
Output line: 500

Input line: Complete the entry with GC Abundance for CC(C)=CC1CC(C)CCO1 (stereo not drawn) [ROSE OXIDE (HIGH CIS)]
Output line: 14000

Input line: Complete the entry with GC Abundance for CCCCCCC(C=O)=Cc1ccccc1 [HEXYL CINNAMIC ALDEHYDE]
Output line: 2000

Input line: Complete the entry with GC Abundance for CCCC(=O)OCC [ETHYL BUTYRATE]
Output line: 2000

* * *

assay: GC-MS headspace release profile of Tropical Fruit perfume in shampoo, 1/100 dilution in water; format: physicochemical; details: headspace at 50 seconds
Quick list: GC Abundance per entry.
Reply briefly: the number, and no unit.

Solved cases below.
CC(C)CC1CC(C)(O)CCO1 (stereo not shown) = 15000
C=CCOC(=O)CCCCCC [ALLYL HEPTOATE] = 12000
CCC=C(C)C(O)CCCCC (stereo not shown) = 10000

Input line: Complete the entry with GC Abundance for CC(C=O)Cc1ccc2c(c1)OCO2 (stereo not shown)
Output line: 5000

* * *

assay: GC-MS headspace release profile of Tropical Fruit perfume in shampoo, 1/100 dilution in water; type: physicochemical; conditions: headspace at 40 seconds
Output: class label from GC Abundance. Mapping: low interval: < 3000; middle interval: ≥ 3000 and < 8000; high interval: ≥ 8000

Reference set (5 entries):
CCCCCC1CCC(=O)O1 (centres unmarked) = middle interval
CC(=O)OCc1ccccc1 [BENZYL ACETATE] = high interval
CC(=O)OC(C)(C)C1CC=C(C)CC1 (centres unmarked) [TERPINYL ACETATE] = high interval
CC=CC(=O)C1C(C)=CCCC1(C)C (centres unmarked) = low interval
CC/C=C\CCOC(C)=O [CIS-3-HEXENYL ACETATE] = high interval

Lab note: next compound to report on.
Input line: The entry to classify is CC/C(=C\CC1CC=C(C)C1(C)C)CO (centres unmarked) ; which class holds it?
Output line: low interval

* * *

Quick list: GC Abundance per entry.
assay: GC-MS headspace release profile of Tropical Fruit perfume in shampoo, 1/100 dilution in water; type: physicochemical; conditions: headspace at 50 seconds
Reply briefly: the number, and no unit.

CCCCCCC1CCC(=O)O1 (centres unmarked) [GAMMA-DECALACTONE, 5-Hexyldihydro-2(3H)-furanone] = 7000
CC/C(=C\CC1CC=C(C)C1(C)C)CO (centres unmarked) [BACDANOL] = 5000
CC(C)=CCCC(C)CCCC(C)C=O (centres unmarked) [ADOXAL, 2,6,10-Trimethyl-9-undecenal] = 3000
CC1=CC(C)C(C=O)CC1 (centres unmarked) [TRIPLAL] = 6000
CC(=O)OC1CCCCC1C(C)(C)C (centres unmarked) [VERDOX] = 20000
CC/C=C\CCO [CIS-3-HEXEN-1-OL] = 14000

Input line: Complete the entry with GC Abundance for CC(C)=CC1CC(C)CCO1 (stereo not drawn) [ROSE OXIDE (HIGH CIS)]
Output line: 14000

Input line: Complete the entry with GC Abundance for CCCC(=O)OCC [ETHYL BUTYRATE]
Output line: 800

Input line: Complete the entry with GC Abundance for CCCC(C)C(=O)OCC (centres unmarked) [MANZANATE, Ethyl 2-methylpentanoate]
Output line: 1500

Input line: Complete the entry with GC Abundance for CCCCCC1CCC(=O)O1 (centres unmarked) [ALDEHYDE C-18]
Output line: 4000

Input line: Complete the entry with GC Abundance for O=C1CCCCCCCCCCCC(=O)OCCO1 [ETHYLENE BRASSYLATE]
Output line: 20
